Attribution: PubChem BioAssay (NCI)

- Test system: U251 CNS
- Assay Summary: NCI-60 one-dose screen, 48 h (100 = growth as untreated, 0 = no growth, -100 = all killed)
- Assay Context: 10 µM unless noted
This is part of a sample that, as a whole, favours compounds with a hit. Of some 83,000 tested, about 20% had one in any assay.
Documented growth across a set of molecules

Molecule: O=C(Nc1cccc(Cl)c1)c1cc(N=Nc2ccc([N+](=O)[O-])cc2Cl)ccc1O
Units: %
growth: 63.9

Molecule: CC(C)(C)c1ccc(/C=C/C(=O)Nc2ccc(O)cc2)cc1
Units: %
growth: 72.8

Molecule: N[C@@H](CCCCNCC(=O)O)C(=O)O
Units: %
growth: 99.9

Molecule: O=C(c1ccccc1)N1N=C(c2ccccc2)CC1c1nnc2n(Cc3ccccc3)c(=O)c3c4c(sc3n12)CCCC4 (stereo not given)
Units: %
growth: 98.3

Molecule: O=C1Nc2ccc(F)cc2C12Nc1cc(Cl)ccc1S2 (stereo not given)
Units: %
growth: 94.6

Molecule: O=C1NC(=Nc2ccc(Cl)cc2)S/C1=C\c1cn(-c2ccccc2)nc1-c1ccccc1
Units: %
growth: 18.4

Molecule: Cc1ccc(C(=NN=C(N)N)c2ccc(C)cc2)cc1
Units: %
growth: 6.36

Molecule: COc1cc(N=Nc2ccc(N)cc2)c(OC)cc1N=Nc1ccccc1.[Cl][Zn][Cl]
Units: %
growth: 104

Molecule: O=C(COc1ccc(/C=C2\Oc3ccccc3C2=O)cc1)Nc1nc2c(s1)CCCC2
Units: %
growth: -44.4

Molecule: COC(=O)[C@]12CC[C@@H](C)[C@H](C)[C@@H]1C1=CC[C@@H]3[C@@]4(C)C(C=O)=C[C@@](C)(COC(C)=O)C4=CC[C@@]3(C)[C@]1(C)CC2
Units: %
growth: -25.8

Molecule: CC(C)CC(NC(=O)CN(Cc1ccccc1)S(C)(=O)=O)C(=O)O (stereo not given)
Units: %
growth: 103

Molecule: COC(=O)c1c2c(c[n+]([O-])c1C)C(=O)C=CC2=O
Units: %
growth: 37.7

Molecule: COc1ccccc1CNCCCN1C(=O)c2ccc3c4c(ccc(c24)C1=O)C(=O)N(CCCNCCCCN)C3=O
Units: %
growth: -67.4

Molecule: Cc1nc2c(c(N3CCCc4ccccc43)n1)CCC2
Units: %
growth: 7.57

Molecule: Cc1ccc(-c2c(-c3ccccc3)c(=O)oc3ccc(C)cc23)cc1
Units: %
growth: 83.1

Molecule: COc1cccc(-c2nn(-c3ccccc3)cc2-c2ccnc(NCCCNC(=O)c3ccc(F)cc3)c2)c1
Units: %
growth: 36.4

Molecule: Cc1ccc(/C=C/c2c(C(=O)/C=C/c3ccc(Cl)cc3)c(C)nc3ccccc23)cc1
Units: %
growth: -36.9

Molecule: CC1CC(C(C)(C)C)C(=O)C(C(C)(C)C)C1 (stereo not given)
Units: %
growth: 105

Molecule: COc1cc(C2CC(=O)Nc3c2c(C)nn3-c2nc3ccccc3[nH]2)cc2c1OCC(=O)N2 (stereo not given)
Units: %
growth: 55.2

Molecule: COc1ccc(-c2[nH]c(=S)n(C(CC3(C)NCC(=O)N3n3c(-c4ccccc4)cc(C)nc3=S)c3ccc(OC)cc3)c(=O)c2Br)cc1 (stereo not given)
Units: %
growth: 55.8
